- Target or system: T1, MDA-5 (human, UniProt Q9BYX4 1-1025)
- T1 sequence: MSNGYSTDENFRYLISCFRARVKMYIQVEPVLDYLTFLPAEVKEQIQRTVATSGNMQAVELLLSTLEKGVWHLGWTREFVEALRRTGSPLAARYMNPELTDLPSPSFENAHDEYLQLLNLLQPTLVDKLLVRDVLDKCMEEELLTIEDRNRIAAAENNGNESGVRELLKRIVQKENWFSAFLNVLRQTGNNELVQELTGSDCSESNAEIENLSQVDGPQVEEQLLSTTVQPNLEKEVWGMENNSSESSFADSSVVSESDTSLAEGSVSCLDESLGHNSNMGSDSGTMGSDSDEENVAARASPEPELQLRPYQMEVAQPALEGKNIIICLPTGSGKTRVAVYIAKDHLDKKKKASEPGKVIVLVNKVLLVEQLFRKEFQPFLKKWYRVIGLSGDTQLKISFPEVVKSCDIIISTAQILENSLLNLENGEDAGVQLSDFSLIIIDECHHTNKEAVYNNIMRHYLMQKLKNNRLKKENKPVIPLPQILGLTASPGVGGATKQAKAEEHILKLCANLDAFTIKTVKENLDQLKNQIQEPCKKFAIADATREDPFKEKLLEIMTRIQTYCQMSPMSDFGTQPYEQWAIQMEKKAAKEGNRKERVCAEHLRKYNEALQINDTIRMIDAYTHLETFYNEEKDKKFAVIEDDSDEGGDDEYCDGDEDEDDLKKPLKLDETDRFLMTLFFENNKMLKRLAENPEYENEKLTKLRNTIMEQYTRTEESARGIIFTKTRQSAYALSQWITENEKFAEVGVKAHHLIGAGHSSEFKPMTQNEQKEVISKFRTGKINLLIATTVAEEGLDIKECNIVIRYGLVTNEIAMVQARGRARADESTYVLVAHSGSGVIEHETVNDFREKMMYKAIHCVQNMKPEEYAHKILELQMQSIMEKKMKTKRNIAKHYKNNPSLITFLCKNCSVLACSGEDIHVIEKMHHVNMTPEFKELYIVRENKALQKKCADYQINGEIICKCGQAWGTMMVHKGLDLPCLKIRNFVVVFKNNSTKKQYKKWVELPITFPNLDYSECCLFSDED
- Protocol description: EMSA
Endpoint name: pKd
Recall that pKd is obtained by taking minus log10 of the concentration measured in molar.

Memo: ds25 (dsRNA) RNA 1: GGGUAUAGACUGACUAGGAUCUCCC RNA 2: GGGAGAUCCUAGUCAGUCUAUACCC , reported pKd: 6.91
